Target: MetRS (T. brucei) (Trypanosoma brucei brucei, UniProt Q38C91)
Sequence (Q38C91 entry or part of it): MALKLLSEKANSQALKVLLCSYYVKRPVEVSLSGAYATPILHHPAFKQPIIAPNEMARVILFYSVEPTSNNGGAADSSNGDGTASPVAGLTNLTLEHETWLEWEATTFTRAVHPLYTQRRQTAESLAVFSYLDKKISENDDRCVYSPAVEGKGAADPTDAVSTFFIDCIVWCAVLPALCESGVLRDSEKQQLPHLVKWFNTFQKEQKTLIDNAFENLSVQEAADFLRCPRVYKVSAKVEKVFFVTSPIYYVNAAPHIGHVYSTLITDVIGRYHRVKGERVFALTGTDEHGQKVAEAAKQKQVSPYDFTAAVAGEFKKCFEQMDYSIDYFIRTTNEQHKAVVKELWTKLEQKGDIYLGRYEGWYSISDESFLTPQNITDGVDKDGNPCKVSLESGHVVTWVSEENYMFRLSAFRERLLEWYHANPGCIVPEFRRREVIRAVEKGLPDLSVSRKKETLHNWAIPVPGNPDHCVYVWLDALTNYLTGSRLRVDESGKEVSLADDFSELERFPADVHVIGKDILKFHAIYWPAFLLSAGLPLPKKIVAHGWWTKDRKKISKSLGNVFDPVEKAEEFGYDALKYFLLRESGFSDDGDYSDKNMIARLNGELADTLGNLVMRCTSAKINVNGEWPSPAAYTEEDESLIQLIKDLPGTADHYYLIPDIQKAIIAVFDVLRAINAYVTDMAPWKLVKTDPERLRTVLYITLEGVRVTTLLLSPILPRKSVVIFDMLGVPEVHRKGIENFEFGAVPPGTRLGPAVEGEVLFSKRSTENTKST
pIC50: −log10 of the molar value.
assayEndpoint: pIC50

compound=O=C(/C=C/Oc1ccc(Cl)cc1Cl)NNc1nc2ccccc2[nH]1 assayendpoint=pIC50 censoringoperator=< valueobserved=5.00
compound=O=C(CC(=O)Nc1ccc(Cl)cc1Cl)NCc1nc2ccccc2[nH]1 assayendpoint=pIC50 censoringoperator=< valueobserved=5.00
compound="Clc1cc(Cl)cc(NCC2CCCN(c3nc4nc(Cl)c(Br)cc4[nH]3)C2)c1 (centres unmarked)" assayendpoint=pIC50 censoringoperator=< valueobserved=5.00
compound=CC(C)[C@@H](Cc1nc2ccc(Cl)cc2[nH]1)NCc1cc(Cl)cc(Cl)c1 assayendpoint=pIC50 censoringoperator=< valueobserved=5.00
compound=Clc1cc(Cl)cc(CNCc2nc3ccc(Br)cc3[nH]2)c1 assayendpoint=pIC50 censoringoperator=< valueobserved=5.00
compound="CC(=O)N(Cc1cc(Cl)cc(Cl)c1)N1CCCC(c2nc3cc(F)ccc3[nH]2)C1 (centres unmarked)" assayendpoint=pIC50 censoringoperator=< valueobserved=5.00
compound=CC(=O)N(CCNc1nc2nc(F)ccc2[nH]1)Cc1cc(Cl)cc(Cl)c1 assayendpoint=pIC50 censoringoperator== valueobserved=7.80
compound="Clc1cc(Cl)cc(CNCC2CCCN2c2nc3nc(Cl)ccc3[nH]2)c1 (centres unmarked)" assayendpoint=pIC50 censoringoperator== valueobserved=7.24
compound=Clc1cc(Cl)cc(CNCCc2nc3ncc(Cl)cc3[nH]2)c1 assayendpoint=pIC50 censoringoperator== valueobserved=7.22
compound=Clc1ccc2[nH]c([C@H]3CCCN(Cc4ccc(Cl)c(Cl)c4)C3)nc2n1 assayendpoint=pIC50 censoringoperator== valueobserved=7.27
compound=COc1ccc(Oc2cccc(NCCc3nc4ccccc4[nH]3)n2)c(Cl)c1 assayendpoint=pIC50 censoringoperator== valueobserved=5.95
compound=O=C1CN(Cc2cc(Cl)cc(Cl)c2)CCN1Cc1nc2ccccc2[nH]1 assayendpoint=pIC50 censoringoperator=< valueobserved=5.00
compound=NC(=O)N(CCCNc1nc2ccc(F)nc2[nH]1)Cc1cc(Cl)cc(Cl)c1 assayendpoint=pIC50 censoringoperator== valueobserved=8.15
compound=CCOc1c(Cl)cc(Cl)cc1CNCCN(C)c1nc2nc(Cl)ccc2[nH]1 assayendpoint=pIC50 censoringoperator== valueobserved=7.82
compound=CN(CCN[C@@H]1CCNc2c(Cl)cc(Cl)cc21)c1nc2nc(Cl)ccc2[nH]1 assayendpoint=pIC50 censoringoperator== valueobserved=7.68
compound=O=c1[nH]c(Cc2ccc(Cl)cc2Cl)cn1Cc1nc2ccc(F)nc2[nH]1 assayendpoint=pIC50 censoringoperator== valueobserved=7.72
compound="NC(Cc1nc2ccccc2[nH]1)C(=O)NCCc1ccc(Cl)cc1Cl (centres unmarked)" assayendpoint=pIC50 censoringoperator=< valueobserved=5.00
